Origin of the recorded values: patent US12310975B2

MEASUREMENT_TARGET: BCL6 (Homo sapiens (Human), UniProt P41182)
EXPERIMENT_NOTES: BCL6 TR-FRET assay (BCL6-Avitag-Biotin / BCoR-Cy5 peptide)
Assay type: binding
Below: a set of entries, each annotated with reported EC50.
ENDPOINT_LABEL: EC50

>>> assay_value("CNC(=O)COc1cc2cc(Nc3nc(N4CCN(CC5CCN(c6ccc(C(=O)NC7CCC(=O)NC7=O)c(F)c6)CC5)CC4)ncc3Cl)ccc2n(C)c1=O (stereo not drawn)")
"> 100 nM"
>>> assay_value("Cn1cc(-c2cc3cc(Nc4nc(N5CCC(CN6CCN(c7ccc8c(c7)C(=O)N(C7CCC(=O)NC7=O)C8=O)CC6)CC5)ncc4Cl)ccc3n(C)c2=O)cn1 (stereo not drawn)")
"> 100 nM"
>>> assay_value("CNC(=O)COc1cc2cc(Nc3nc(N4CCN(CC5CCN(c6cccc(F)c6C(=O)NC6CCC(=O)NC6=O)CC5)CC4)ncc3Cl)ccc2n(C)c1=O (stereo not drawn)")
"10 to 50 nM"

* * *

Attribute: DC50
MEASUREMENT_TARGET: BCL6 (Homo sapiens (Human), UniProt P41182)
EXPERIMENT_NOTES: Immunofluorescence high content imaging of BCL6 degradation in T47D cells
Format: cell-based
EXPERIMENTAL_CONTEXT: class symbols A-D, read-out: EC50 (nM)*
Method: Immunofluorescence Protocol for High Cotent Imaging of BCL6 T47D cells were seeded in 100 μl volume of RPMI1640-10% FBS in a 96-well black/clear bottom plates for adherent lines (Corning #3904). Day 1. T47D breast cancer epithelial cells were seeded at a density so that confluence is ˜70-90% at endpoint. Cells were seeded at 7K/0.1 ml/well the morning prior to the addition of exemplary bifunctional degradation compounds. Day 2. […] Plates were equilibrated to room temperature prior to reading. […]
ENDPOINT_LABEL: DC50

>>> assay_value("CNC(=O)COc1cc2cc(Nc3nc(N4CCC(OCCOCCOc5ccc6c(c5)C(=O)N(C5CCC(=O)NC5=O)C6=O)CC4)ncc3Cl)ccc2n(C)c1=O (stereo not drawn) [compound 63]")
"10 to 50 nM"
>>> assay_value("CNC(=O)COc1cc2cc(Nc3nc(N4CCC(OCCOCCOCCOCCOCCOCC(=O)N[C@H](C(=O)N5C[C@H](O)C[C@H]5C(=O)NCc5ccc(-c6scnc6C)cc5)C(C)(C)C)CC4)ncc3Cl)ccc2n(C)c1=O [compound 82]")
"50 to 100 nM"
>>> assay_value("CNC(=O)COc1cc2cc(Nc3nc(N4CCC(OCCOCCOCCOCCOCCOCCOc5ccc6c(c5)C(=O)N(C5CCC(=O)NC5=O)C6=O)CC4)ncc3Cl)ccc2n(C)c1=O (stereo not drawn) [compound 68]")
"> 100 nM"
>>> assay_value("CNC(=O)COc1cc2cc(Nc3nc(N4CCC(OCCOCCOc5cc(-c6scnc6C)ccc5CNC(=O)[C@@H]5C[C@@H](O)CN5C(=O)C(c5cc(C)no5)C(C)C)CC4)ncc3Cl)ccc2n(C)c1=O (stereo partly drawn) [compound 53]")
"> 100 nM"
>>> assay_value("CNC(=O)COc1cc2cc(Nc3nc(N4CCC(c5cn(CCOCCOCCOCCOc6ccc7c(c6)C(=O)N(C6CCC(=O)NC6=O)C7=O)nn5)CC4)ncc3Cl)ccc2n(C)c1=O (stereo not drawn) [compound 129]")
"> 100 nM"
>>> assay_value("CNC(=O)COc1cc2cc(Nc3nc(N4CCC(OCCOCCOCCOc5cc(-c6scnc6C)ccc5CNC(=O)[C@@H]5C[C@@H](O)CN5C(=O)[C@H](c5cc(C)no5)C(C)C)CC4)ncc3Cl)ccc2n(C)c1=O [compound 49]")
"> 100 nM"
>>> assay_value("CNC(=O)COc1cc2cc(Nc3nc(N4CCC(Cc5cn(CCOCC(=O)N[C@H](C(=O)N6C[C@H](O)C[C@H]6C(=O)N[C@@H](C)c6ccc(-c7scnc7C)cc6)C(C)(C)C)nn5)CC4)ncc3Cl)ccc2n(C)c1=O [compound 122]")
"50 to 100 nM"
>>> assay_value("CC(=O)COc1cc2cc(Nc3nc(N4CCC(CN5CCC(Oc6ccc7c(c6)C(=O)N(C6CCC(=O)NC6=O)C7=O)CC5)C4)ncc3Cl)ccc2n(C)c1=O (stereo not drawn) [compound 154]")
"10 to 50 nM"
>>> assay_value("CNC(=O)COc1cc2cc(Nc3nc(N4CCC(OCCOCCOCCOCCOCCOCCOc5cc(-c6scnc6C)ccc5CNC(=O)[C@@H]5C[C@@H](O)CN5C(=O)C(c5cc(C)no5)C(C)C)CC4)ncc3Cl)ccc2n(C)c1=O (stereo partly drawn) [compound 58]")
"> 100 nM"

* * *

MEASUREMENT_TARGET: BCL6 (Homo sapiens (Human), UniProt P41182)
EXPERIMENT_NOTES: Immunofluorescence high content imaging of BCL6 degradation in T47D cells
Assay type: cell-based
EXPERIMENTAL_CONTEXT: T47D, maximum, class symbols A-C
ENDPOINT_LABEL: Dmax

>>> assay_value("CN(C)C(=O)COc1cc2cc(Nc3nc(N4CCC(CN5CCN(c6ccc7c(c6)C(=O)N(C6CCC(=O)NC6=O)C7=O)CC5)CC4)ncc3Cl)ccc2n(C)c1=O (centres unmarked) [compound 166]")
"< 50%"
>>> assay_value("CNC(=O)COc1cc2cc(Nc3nc(N4CCCC(COc5ccc(C6CCN(CCC(O)c7ccc8c(c7)CN(C7CCC(=O)NC7=O)C8=O)CC6)cc5)C4)ncc3Cl)ccc2n(C)c1=O (centres unmarked) [compound 127]")
"< 50%"
>>> assay_value("CC(=O)COc1cc2cc(Nc3nc(N4CCC(CN5CCC(Oc6ccc7c(c6)C(=O)N(C6CCC(=O)NC6=O)C7=O)CC5)C4)ncc3Cl)ccc2n(C)c1=O (centres unmarked) [compound 154]")
"< 50%"
>>> assay_value("CC(=O)COc1cc2cc(Nc3nc(N4CCN(CC5CCN(c6ccc7c(c6)C(=O)N(C6CCC(=O)NC6=O)C7=O)CC5)CC4)ncc3Cl)ccc2n(C)c1=O (centres unmarked) [compound 148]")
"50 to 70%"
>>> assay_value("CC(=O)COc1cc2cc(Nc3nc(N4CCN(C5CCN(CCCOc6ccc7c(c6)CN(C6CCC(=O)NC6=O)C7=O)C5)CC4)ncc3Cl)ccc2n(C)c1=O (centres unmarked) [compound 158]")
"< 50%"
>>> assay_value("CC(=O)COc1cc2cc(Nc3nc(N4CCC(CN5CC6(C5)CN(c5ccc7c(c5)C(=O)N(C5CCC(=O)NC5=O)C7=O)C6)CC4)ncc3Cl)ccc2n(C)c1=O (centres unmarked) [compound 165]")
"50 to 70%"
>>> assay_value("CC(=O)COc1cc2cc(Nc3nc(N4CCC(CCN5CCN(c6ccc7c(c6)C(=O)N(C6CCC(=O)NC6=O)C7=O)CC5)CC4)ncc3Cl)ccc2n(C)c1=O (centres unmarked) [compound 162]")
"< 50%"
>>> assay_value("CNC(=O)COc1cc2cc(Nc3nc(N4CCCC(COc5ccc(C6CCN(CC#Cc7ccc8c(c7)CN(C7CCC(=O)NC7=O)C8=O)CC6)cc5)C4)ncc3Cl)ccc2n(C)c1=O (centres unmarked) [compound 167]")
"< 50%"

* * *

MEASUREMENT_TARGET: BCL6 (Homo sapiens (Human), UniProt P41182)
EXPERIMENT_NOTES: BCL6 TR-FRET assay (BCL6-Avitag-Biotin / BCoR-Cy5 peptide)
Type: binding
EXPERIMENTAL_CONTEXT: read-out: IC50
// reported IC50 per item
ENDPOINT_LABEL: IC50

>>> assay_value("CNC(=O)COc1cc2cc(Nc3nc(N4CCC5(CC4)CN(CC4CCN(c6ccc(C(=O)NC7CCC(=O)NC7=O)c(OC)c6)CC4)C5)ncc3Cl)ccc2n(C(C)C)c1=O (centres unmarked)")
"10 to 50 nM"
>>> assay_value("CNC(=O)COc1cc2cc(Nc3nc(N4CCC(CN5CCC6(CCN(c7ccc8c(c7)C(=O)N(C7CCC(=O)NC7=O)C8=O)CC6)C5)CC4)ncc3Cl)ccc2n(C(C)C)c1=O (centres unmarked)")
"< 10 nM"
>>> assay_value("CNC(=O)COc1cc2cc(Nc3nc(N4CCC(OC5CN(C6CCN(c7ccc8c(c7)C(=O)N(C7CCC(=O)NC7=O)C8=O)CC6)C5)CC4)ncc3Cl)ccc2n(C(C)C)c1=O (centres unmarked)")
"< 10 nM"
>>> assay_value("CNC(=O)COc1cc2cc(Nc3nc(N4CCC(CN5CCC6(CC5)CCN(c5ccc(N7CCC(=O)NC7=O)cc5)C6)CC4)ncc3Cl)ccc2n(C(C)C)c1=O")
"< 10 nM"
>>> assay_value("Cn1c(=O)n(CCC(C)(C)O)c2cc(Nc3nc(N4CCC(CN5CCN(c6cccc7c6C(=O)N(C6CCC(=O)NC6=O)C7=O)CC5)CC4)ncc3Cl)ccc21 (centres unmarked)")
"50 to 100 nM"
